Entry source: PubChem BioAssay (NCI)

Quick list: TGI per entry.
system: T-47D breast; assay: NCI tumour cell line growth inhibition, 48 h

Compound	Property label	Result
COc1cc2c[n+](C)c3c4ccccc4ccc3c2cc1OC	TGI	9.22 µM
COc1cc2cc(C(=O)O)[nH]c2cc1OCc1ccccc1	TGI	> 100 µM
COc1cc(/C=C2\C(=O)N(c3c(Cl)cccc3Cl)c3ccccc32)cc(OC)c1O	TGI	17.8 µM
COC(=O)c1ccccc1CC1Cc2cc3c(cc2C1)CCC3	TGI	> 100 µM
CCN(C)S(=O)(=O)Nc1cccc(Nc2ncnc3cc(NC(=O)CCl)ccc23)c1Cl	TGI	13.2 µM
C=CCCCC1(C)CCCCNC1=O (stereo not drawn)	TGI	> 10 µM
O=c1cccc(C#CCCCCOC2CCCO2)o1 (stereo not drawn)	TGI	> 48.8 µM

Then this compound:
So, "OCCOCCO[P+]1(OCCOCCO)n2c3ccc2C(c2ccccc2)=C2C=CC(=N2)C(c2ccccc2)=c2ccc(n21)=C(c1ccccc1)C1=NC(=C3c2ccccc2)C=C1" ? Its TGI was 2.04 µM

----------
Quick list: TGI per entry.
system: ACHN renal; experiment: NCI tumour cell line growth inhibition, 48 h
Please give a number only; it is taken to be in µM.

Structure	Target entity	Numeric result
O=C(N/N=C/c1cc2ccccc2c2ccccc12)c1cc(O)c(O)c(O)c1	ACHN renal	12.6

ACHN renal assay, compound "Clc1ccc2c(NCCNc3nc(-c4ccccc4)cc(-c4ccccc4)n3)ccnc2c1" , recorded TGI = 3.1

----------
system: SNB-19 CNS; assay: NCI tumour cell line growth inhibition, 48 h
Quick list: TGI per entry.
Please give a number only; it is taken to be in µM.

Study these solved cases before continuing.
Structure	TGI (µM)
Clc1ccc2c(NCCCN3CCN(c4nc(-n5ccnc5)nc5ccccc45)CC3)ccnc2c1	6.49
COC(=O)/C(=C/N1CCN(C(=O)c2ccco2)C1=S)C(C)=O	94.8

Then this compound:
So, "O=C(O)/C(O)=C1/C=C(c2ccccc2)c2ccccc21" ? Its TGI was 83.9

----------
Quick list: TGI per entry.
tested on: SK-MEL-2 melanoma; test: NCI tumour cell line growth inhibition, 48 h

Study these solved cases before continuing.
Compound	TGI
CC(=O)OC1CC(OC2C(O)CC(OC3C(O)CC(OC4CCC5(C)C(CCC6C5CC(O)C5(C)C(C7=CC(=O)OC7)CCC65O)C4)OC3C)OC2C)OC(C)C1O (configuration not stated) (tested in a mixture with another compound)	0.207 µM
CC(=O)Nc1ccc(/C=c2\sc3nnc(/C=C/c4ccccc4)n3c2=O)cc1	> 50 µM

Then this compound:
So, "Cc1sc(N=Nc2c(O)[nH]c3ccccc23)nc1-c1ccccc1" ? Its TGI was 49.5 µM

----------
system: RPMI-8226 leukemia; experiment: NCI tumour cell line growth inhibition, 48 h; in the data active = GI50 below about 0.43 µM; inactive = the rest
Form entry, call: pick from active, inactive

Compound	Target entity	Classification
C=CCSc1n[nH]c(-c2cccs2)n1	RPMI-8226 leukemia	inactive
COC(=O)/C(=C/N1CCN(C(=O)c2ccco2)C1=S)C(C)=O	RPMI-8226 leukemia	inactive
C/C=C(/C)C(=O)OC1C=C(CO)C(=O)C(OC(=O)/C(C)=C\C)C1C(C)C (stereo unspecified)	RPMI-8226 leukemia	active
COc1cc(/C=C2\C(=O)N(c3c(Cl)cccc3Cl)c3ccccc32)cc(OC)c1O	RPMI-8226 leukemia	inactive
O=C1c2cccc3c(N4CCN(c5ccc6c7c(cccc57)C(=O)N(CCN5CCNCC5)C6=O)CC4)ccc(c23)C(=O)N1CCN1CCNCC1	RPMI-8226 leukemia	inactive

Enquiry: Please share the test call associated with "N#Cc1ccc(-n2cnc(NC(=O)[C@H]3CCN(C#N)C3)c2)cc1" .
Return: inactive

----------
test system: MDA-MB-435
Form entry, call: pick from true (1) for active, false (0) for inactive

Compound	Classification
O=[N+]([O-])c1ccc(N(CCO)CCO)c2c1no[n+]2[O-]	false (0)
O=C(c1cccs1)c1c(C(F)(F)F)n([O-])c2cc(F)c(F)cc2[n+]1=O	false (0)
C[C@]12CC[C@H]3[C@@H](C[C@@H]4SC(Nc5cccc(F)c5)=N[C@@]45CC(=O)CC[C@]35C)[C@@H]1CCC2=O	false (0)
O=S(=O)(Nc1ccc(Cl)c(C(F)(F)F)c1)c1ccc(-c2cnc(C3CC3)o2)cc1	true (1)
CN(C)CCCC1(c2ccc(F)cc2)OCc2cc(-c3ccc4cc[nH]c4c3)ccc21 (stereo not given)	false (0)

Enquiry: Please share the test call associated with "NC(N)=NC(N)=NCCc1ccccc1" .
Return: false (0)

Enquiry: Please share the test call associated with "O=C1C(Nc2ccccn2)=C(I)C(=O)c2ncccc21" .
Return: true (1)

Enquiry: Please share the test call associated with "CCOC(=O)c1c(C)c2c(n1C)CSc1cc(S(=O)(=O)c3ccccc3)c(=O)[nH]c1-2" .
Return: false (0)

Enquiry: Please share the test call associated with "Cc1ccc(NC2=C(Cl)C(=O)c3nc(C)ccc3C2=O)cc1" .
Return: false (0)

Enquiry: Please share the test call associated with "CS(=O)(=O)c1ccc(C(F)(F)F)cc1NC(=O)Nc1cnc(Oc2ccc(-c3cc(Cl)cnc3N)cc2)nc1" .
Return: false (0)

Enquiry: Please share the test call associated with "Cc1ccnc2c1NC(=O)c1cccnc1N2C1CC1" .
Return: false (0)

Enquiry: Please share the test call associated with O=C1Nc2ccccc2SC1C1SC(=S)N(Cc2ccccc2)C1=O (stereo not given) .
Return: false (0)

Enquiry: Please share the test call associated with "Nc1ccc(-c2ccc(-c3nc4ccccc4[nH]3)cc2)cc1" .
Return: true (1)

Enquiry: Please share the test call associated with "Clc1ccc2c(NCCCN3CCN(c4nc(-n5ccnc5)nc5ccccc45)CC3)ccnc2c1" .
Return: false (0)

Enquiry: Please share the test call associated with C/C=C(/C)C(=O)OC1C=C(CO)C(=O)C(OC(=O)/C(C)=C\C)C1C(C)C (stereo not given) .
Return: false (0)

----------
tested on: CAKI-1 renal; assay: NCI tumour cell line growth inhibition, 48 h
Property label: TGI

Study these solved cases before continuing.
Compound	Result
CCCCNc1nc(SC)nc2nc[nH]c12	> 100 µM
CCC(=S)N(C)O	> 100 µM
CC1C(c2ccccc2O)c2cc3c(cc2OC1N1CCCC1)OCO3 (stereo not drawn)	> 100 µM
COC(=O)c1ccccc1CC1Cc2cc3c(cc2C1)CCC3	> 100 µM
c1ccc(-c2cc(-c3cc(-c4ccccn4)[nH]n3)n[nH]2)nc1	> 100 µM
N#Cc1c(NC(=O)CCC(=O)O)ccc2ccccc12	> 100 µM
O=C(Nc1ccc(-n2cc(-c3ccncc3)c(-c3ccc(Cl)c(O)c3)n2)cc1)c1cc(Cl)cc(Cl)c1	> 24.6 µM
Cc1ccc(S(=O)(=O)C2=c3ncccc3=C3C(=O)c4ccccc4C(=O)C32)cc1 (stereo not drawn)	> 100 µM
C(/COc1cccnc1)=N\NC1=NCCN1	> 100 µM
Cc1c2c(cc[n+]1Cc1ccccc1)c1ccc(OCC3CCCCC3)cc1n2CC1CCCCC1	2.64 µM

So, COc1ccc(C(=O)C(C(=O)C(=O)Nc2nc3ccc(OC)cc3s2)c2ccc(OC)cc2)cc1 (stereo not drawn) ? Its TGI was > 100 µM

So, O=c1cccc(C#CCCCCOC2CCCO2)o1 (stereo not drawn) ? Its TGI was 33.6 µM

So, "CCCCc1ccc(Nc2nc(Cl)c3[nH]cnc3n2)cc1" ? Its TGI was 54.1 µM

So, COC(=O)[C@]1(c2cc3ccccc3n2S(=O)(=O)c2ccccc2)CC2CCC1NC2 (stereo partly drawn) ? Its TGI was 29.4 µM

So, "COc1ccc(C2=C(OC(C)=O)c3cccn3-c3ccccc3S2)cc1" ? Its TGI was > 10 µM

So, "O=[N+]([O-])C(=C1Nc2ccccc2N1)C(Cl)=C(Cl)Cl" ? Its TGI was > 100 µM

So, "CCOC(=O)c1cc(C(=O)c2cc(OC)cc(OC)c2)n2ncccc12" ? Its TGI was > 100 µM

So, "Cc1ccc(NC(=O)SCCC(=O)O)cc1NC(=O)SCCC(=O)O" ? Its TGI was > 100 µM

So, "N#Cc1c(N2CCOCC2)ncn(-c2ccccc2)c1=O" ? Its TGI was > 100 µM

So, "Cc1oc2c(c1C(=O)c1ccccc1)C(=O)c1ccccc1C2=O" ? Its TGI was 9.12 µM

----------
Quick list: GI50 per entry.
tested on: SR leukemia; assay: NCI tumour cell line growth inhibition, 48 h

Study these solved cases before continuing.
Structure	Result
O=C1c2cccc3c(N4CCN(c5ccc6c7c(cccc57)C(=O)N(CCN5CCNCC5)C6=O)CC4)ccc(c23)C(=O)N1CCN1CCNCC1	2640 nM
C=CC(=O)Nc1cc2c(Nc3ccc(OCc4ccccn4)c(Cl)c3)ncnc2cc1OCCN1CCOCC1	2620 nM
O=C1C(Nc2ccccn2)=C(I)C(=O)c2ncccc21	274 nM
O=C(c1cccs1)c1c(C(F)(F)F)n([O-])c2cc(F)c(F)cc2[n+]1=O	96 nM
O=C(N/N=C/c1cc2ccccc2c2ccccc12)c1cc(O)c(O)c(O)c1	3720 nM

So, "O=[N+]([O-])c1ccc(N(CCO)CCO)c2c1no[n+]2[O-]" ? Its GI50 was 215 nM
